# Tgt: human HPK1 (MAP4K1) (Homo sapiens (Human))
# Assay details: HPK1 IC50 Assay (TR-FRET peptide phosphorylation)
# Format: biochemical
# Measurement conditions: recombinant HPK1 kinase domain 0.15 nM, 10 μM ATP, 1 μM STK S1 peptide; geometric mean of multiple experiments
pIC50: −log10 of the molar value.
Observed property: pIC50

CC(C)n1cnc2cc(-c3cnc4c(c3)N([C@H]3C[C@@](C)(N5CCCCCC5)C3)C(=O)C4(C)C)nc(Nc3cc(C(=O)NCC(F)F)c(Cl)c(F)c3F)c21 = 10.30
CNC(=O)c1cc(Nc2nc(-c3cnc4c(c3)N([C@H]3C[C@@H](N5CCCCC5)C3)C(=O)C4(C)C)cc3ncn(C(C)C)c23)ccc1C = 9.40

(A) CCNC(=O)c1cc(Nc2nc(-c3ccc4c(c3)N([C@H]3C[C@@H](N5CCCCC5)C3)C(=O)C43CCOCC3)cc3ncn(C(C)C)c23)ccc1C
(B) CC(=O)N1CCC2(CC1)C(=O)N([C@H]1C[C@@H](N3CCCCC3)C1)c1cc(-c3cc4ncn(C(C)C)c4c(Nc4cc(C(=O)NCC(C)C)c(C)cc4F)n3)ccc12
Inquiry: # query: argmin of pIC50 over A and B Reply briefly: the label of your chosen item.
Reply text: B

(I) CCNC(=O)c1cc(Nc2nc(-c3cc4c(nc3F)C(C)(C)C(=O)N4[C@H]3C[C@@](C)(N4CCC5CC5C4)C3)cc3ncn(C(C)C)c23)c(F)c(F)c1C (some centres unmarked)
(II) Cc1ccc(Nc2nc(-c3ccc4c(c3)N([C@H]3C[C@@H](N5CCCCC5)C3)C(=O)C4(C)C)cc3ncn(C(C)C)c23)cc1C(=O)NC(C)C(F)F (some centres unmarked)
Inquiry: # query: argmin of pIC50 over I and II Reply briefly: the label of your chosen item.
Reply text: I
(I: 10.00, II: 10.30)

(a) Cc1ccc(Nc2nc(-c3ccc4c(c3)N([C@H]3C[C@@H](N5CCCCC5)C3)C(=O)C4(C)C)cc3ncn(C(C)C)c23)cc1C(=O)N[C@H](C)CF
(b) CNC(=O)c1cc(Oc2nc(-c3ccc4c(c3)N([C@H]3C[C@@H](N5CCCCC5)C3)C(=O)C4(C)C)cc3ncn(C4CC4)c23)ccc1C
(c) CNC(=O)c1cc(Nc2nc(-c3ccc4c(c3)N(C3CC(N5CC[C@H](C(F)F)C5)C3)C(=O)C4(C)C)cc3ncn(C(C)C)c23)ccc1C (some centres unmarked) [Example 104A]
Inquiry: Hey, quick one: sort these by pIC50, largest value first please. Give your ranking as a list of the labels in the requested order.
Reply text: a, c, b
(a: 10.00, c: 9.70, b: 9.22)

* * *

# Tgt: human HPK1 (MAP4K1) (Homo sapiens (Human), UniProt Q92918)
# Sequence (Q92918 17-274): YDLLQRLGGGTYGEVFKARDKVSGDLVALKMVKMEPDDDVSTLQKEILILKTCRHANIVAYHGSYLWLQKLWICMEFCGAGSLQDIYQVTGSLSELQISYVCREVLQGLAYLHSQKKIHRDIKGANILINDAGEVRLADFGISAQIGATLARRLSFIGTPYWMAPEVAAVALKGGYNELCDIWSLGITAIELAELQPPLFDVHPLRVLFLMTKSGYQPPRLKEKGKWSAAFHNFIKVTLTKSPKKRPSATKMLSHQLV
# Assay details: HPK1 IC50 Assay (TR-FRET peptide phosphorylation)
# Assay type: biochemical
# Measurement conditions: recombinant HPK1 kinase domain 0.15 nM, 10 μM ATP, 1 μM STK S1 peptide; geometric mean of multiple experiments
Observed property: IC50 (nM)

Solved entries:
CC(C)n1cnc2cc(-c3cnc4c(c3)N([C@H]3C[C@@](C)(N5C[C@H]6CC[C@@H]5C6)C3)C(=O)C4(C)C)nc(Nc3cc(C(=O)NC4(C(F)F)CC4)c(Cl)c(F)c3F)c21 [Example 263] = 0.05
CNC(=O)c1cc(Nc2nc(-c3ccc4c(c3)N([C@H]3C[C@@H](N5CCCCC5)C3)C(=O)C4(C)C)cc3ncn(C(C)C)c23)ccc1OC(F)(F)F [Example 140] = 0.3
CNC(=O)c1cc(Nc2nc(-c3ccc4c(c3)N([C@H]3C[C@@H](N5CCCCC5)C3)C(=O)C43CCN(C(C)=O)CC3)cc3ncn(C(C)C)c23)c(F)cc1C [Example 92] = 0.08

(P) CC(C)n1cnc2cc(-c3cnc4c(c3)N([C@H]3C[C@@](C)(N5CCCC6(CC6)C5)C3)C(=O)C4(C)C)nc(Nc3cc(C(=O)NC4(C(F)F)CC4)c(Cl)c(F)c3F)c21 [Example 203]
(Q) CC(C)NC(=O)c1cc(Nc2nc(-c3ccc4c(c3)N([C@H]3C[C@@H](N5CCCCC5)C3)C(=O)C4(C)C)cc3ncn(C(C)C)c23)ccc1Cl [Example 115]
(R) COCCNC(=O)c1cc(Nc2nc(-c3ccc4c(c3)N([C@H]3C[C@@H](N5CCCCC5)C3)C(=O)C43CCN(C(C)=O)CC3)cc3ncn(C(C)C)c23)c(F)cc1C [Example 86]
Inquiry: Form: Sort by [IC50] Order [ ascending ] Give your ranking as a list of the labels in the requested order.
Reply text: P, Q, R

(a) Cc1ccc(Nc2nc(-c3ccc4c(c3)N([C@H]3C[C@@H](N5CCCCC5)C3)C(=O)C4(C)C)cc3ncn(C(C)C)c23)cc1C(=O)N[C@@H](C)C(F)F [Example 21A]
(b) COCCNC(=O)c1cc(Nc2nc(-c3ccc4c(c3)N([C@H]3C[C@@H](N5CCCCC5)C3)C(=O)C4(C)C)cc3ncn(C(C)C)c23)ccc1C [Example 137]
Inquiry: # query: argmin of IC50 over a and b Reply briefly: the label of your chosen item.
Reply text: a

Reference source for all entries: patent US11203591B2
